Value source: ChEMBL document CHEMBL4390703

- Test Method Notes: Cytotoxicity against African green monkey Vero cells measured after 48 hrs by crystal violet staining based colorimetric method
- Assay type: cell-based
- Condition Info: chlorocebus sabaeus
Measured CC50 at 48 h, listed per entry for reference.
Readout Name: CC50 at 48 h (µM)

{"Smiles Record": "O=c1c2cc3ccccc3cc2[nH]c(=S)n1CCc1ccccc1", "Readout Name": "CC50 at 48 h", "Test Value": 391}
{"Smiles Record": "COc1cccc(CSc2nc3cc4ccccc4cc3c(=O)n2Cc2ccccc2)c1", "Readout Name": "CC50 at 48 h", "Test Value": 82.7}
{"Smiles Record": "NNc1nc2cc3ccccc3cc2c(=O)n1CCc1ccccc1", "Readout Name": "CC50 at 48 h", "Test Value": 569}
{"Smiles Record": "Cc1ccccc1CSc1nc2cc3ccccc3cc2c(=O)n1CCc1ccccc1", "Readout Name": "CC50 at 48 h", "Test Value": 86.8}
{"Smiles Record": "COc1cccc(CSc2nc3cc4ccccc4cc3c(=O)n2CCc2ccccc2)c1", "Readout Name": "CC50 at 48 h", "Test Value": 145}
{"Smiles Record": "N#Cc1ccccc1CSc1nc2cc3ccccc3cc2c(=O)n1Cc1ccccc1", "Readout Name": "CC50 at 48 h", "Test Value": 53.5}

---

- Test Method Notes: Cytotoxicity against African green monkey Vero cells measured after 48 hrs by crystal violet staining based colorimetric method
- Type: cell-based
- Condition Info: chlorocebus sabaeus

{"Smiles Record": "O=c1c2cc3ccccc3cc2nc(SCc2ccc(Cl)cc2)n1CCc1ccccc1", "CC50 at 48 h [µM]": 101}
{"Smiles Record": "Cc1cccc(CSc2nc3cc4ccccc4cc3c(=O)n2Cc2ccccc2)c1", "CC50 at 48 h [µM]": 506}
{"Smiles Record": "N#Cc1cccc(CSc2nc3cc4ccccc4cc3c(=O)n2CCc2ccccc2)c1", "CC50 at 48 h [µM]": 163}
{"Smiles Record": "N#Cc1ccc(CSc2nc3cc4ccccc4cc3c(=O)n2Cc2ccccc2)cc1", "CC50 at 48 h [µM]": 206}
{"Smiles Record": "N#Cc1cccc(CSc2nc3cc4ccccc4cc3c(=O)n2Cc2ccccc2)c1", "CC50 at 48 h [µM]": 380}
{"Smiles Record": "NNc1nc2cc3ccccc3cc2c(=O)n1Cc1ccccc1", "CC50 at 48 h [µM]": 291}
{"Smiles Record": "O=c1c2cc3ccccc3cc2[nH]c(=S)n1Cc1ccccc1", "CC50 at 48 h [µM]": 180}
{"Smiles Record": "O=c1c2cc3ccccc3cc2nc(SCc2ccccc2)n1Cc1ccccc1", "CC50 at 48 h [µM]": 419}
{"Smiles Record": "NC12CC3CC(CC(C3)C1)C2", "CC50 at 48 h [µM]": 2020}
